- tgt: T1, recombinant human CD3 epsilon/delta heterodimer (human, UniProt P07766 23-126; P04234 22-105)
- T1 construct: Recombinant protein in solution (200-50 nM) in the Octet assay; also called hCD3 E/D; human CD3E/D
- assay.name: Octet BLI, mAb on FAB2G sensor, hCD3 E/D 200-50 nM; R^2 0.99
Here the recorded koff is given for each entry.
Respond numerically; units are s⁻¹ and should not be typed.

ABL-CD3-15 (antibody, V domains shown, Chimeric hybridoma mAb: human V, CH1, upper hinge; mouse middle hinge, CH2, CH3) VH: EVQLVESGGGLVKPGGSLRLSCAASGFNCSSYSMNWVRQAPGKGLEWVSSISRSSNYIYYADSVKGRFSISRDDAKNSLYLQMNSLRAEDTAVYYCARERWIQLYSDYWGQGILVTVSS VL: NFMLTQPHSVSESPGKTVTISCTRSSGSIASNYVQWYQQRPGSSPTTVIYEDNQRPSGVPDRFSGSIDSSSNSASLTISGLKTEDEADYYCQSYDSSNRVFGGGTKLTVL: 0.000276

Prompt: Form field: reported koff of ABL-CD3-7 (antibody, V domains shown, Chimeric hybridoma mAb: human V, CH1, upper hinge; mouse middle hinge, CH2, CH3) VH: EVQLVESGGGLVKPGGSLRLSCAASGFTFSRYSMNWVRQAPGKGLKWVSSISSSGSYKYYADSVKGRFTISRDNAKNSLYLQMNSLRAEDTAVYYCAREPPTLGMDYWGQGTLVTVSS VL: NFMLTQPHSVSESPGKTVTISCTRSSGSIASNYVQWYQQRPGSSPTTVIYEDNQRPSGVPDRFSGSIDSSSNSASLTISGLKTEDEADYYCQSFDNSNRVFGGGTKLTVL
Completion: 0.000786

Prompt: Give the measured koff of ABL-CD3-9 (antibody, V domains shown, Chimeric hybridoma mAb: human V, CH1, upper hinge; mouse middle hinge, CH2, CH3) VH: EVQLVDSGGGLVKPGGSLRLSCAASGFTFSSYSMNWVRQAPGKGLEWVSSVNSRGSYIYYADSVKGRFTISRDNAKNSLYLQMNSLRADDTAVYYCARDRRELLLDYWGQGTLVTVSS VL: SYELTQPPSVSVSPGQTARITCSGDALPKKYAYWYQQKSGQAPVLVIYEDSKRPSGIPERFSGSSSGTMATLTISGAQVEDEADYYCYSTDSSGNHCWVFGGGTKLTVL .
Completion: 0.0393
